Reported IC50 values are given for each entry in this list.
# Test system: T. b. rhodesiense strain STIB 900, trypomastigotes
# EXPERIMENT NOTES: In vitro activity against T. b. rhodesiense, serial drug dilution assay
# RECORDED CONDITIONS: Trypanosoma brucei, read-out: IC50 T. b. rhod.

# MOLECULE, IC50
data = [
    ("NC(=O)c1cccnc1 [Nicotinamide]", "> 737 µM"),
    ("C[C@@H](c1ncncc1F)[C@](O)(Cn1cncn1)c1ccc(F)cc1F", "> 286 µM"),
    ("Nc1nc2c(ncn2CCC(CO)CO)c(=O)[nH]1", "> 395 µM"),
    ("COc1ccc2[nH]c([S+]([O-])Cc3ncc(C)c(OC)c3C)nc2c1 (stereo not shown)", "51.8 µM"),
    ("Cc1oncc1C(=O)Nc1ccc(C(F)(F)F)cc1 [Leflunomide]", "213 µM"),
    ("CCC[C@@H]1C[C@@H](C(=O)N[C@@H]([C@H]2O[C@H](SC)[C@H](O)[C@@H](O)[C@H]2O)[C@@H](C)O)N(C)C1", "> 221 µM"),
    ("CC(Cc1cccc(C(F)(F)F)c1)NCCOC(=O)c1ccccc1 (stereo not shown)", "21.1 µM"),
    ("Cc1ncc([N+](=O)[O-])n1CC(O)CCl (stereo not shown)", "25.9 µM"),
    ("CC(=O)OCC(CCn1cnc2cnc(N)nc21)COC(C)=O", "225 µM"),
    ("Cc1c(O)cccc1C(=O)N[C@@H](CSc1ccccc1)[C@H](O)CN1C[C@H]2CCCC[C@H]2C[C@H]1C(=O)NC(C)(C)C", "20.6 µM"),
]
